The measurements presented in this section are drawn from patent US8426447B2.

Recorded pIC50 by entry
- tested target: BACE1 (Homo sapiens)
- Sequence (P56817 46-501, species assumed): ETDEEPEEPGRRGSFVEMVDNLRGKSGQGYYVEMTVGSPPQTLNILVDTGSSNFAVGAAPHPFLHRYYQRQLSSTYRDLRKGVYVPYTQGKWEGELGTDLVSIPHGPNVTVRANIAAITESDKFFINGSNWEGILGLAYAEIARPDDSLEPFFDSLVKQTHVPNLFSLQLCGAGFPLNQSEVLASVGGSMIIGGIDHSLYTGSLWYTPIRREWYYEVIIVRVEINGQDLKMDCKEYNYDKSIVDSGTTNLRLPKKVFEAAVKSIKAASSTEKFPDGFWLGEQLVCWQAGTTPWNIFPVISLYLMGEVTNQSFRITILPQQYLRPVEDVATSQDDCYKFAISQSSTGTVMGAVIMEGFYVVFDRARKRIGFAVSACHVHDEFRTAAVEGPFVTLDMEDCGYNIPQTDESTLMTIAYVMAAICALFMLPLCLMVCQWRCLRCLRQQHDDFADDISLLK
- assay method text: In Vitro Enzymatic BACE FRET (Fluorescence Resonance Energy Transfer) Assay
- Assay type: biochemical
- study conditions: Table II; read-out: BACE1 FRET assay
pIC50: −log10 of the molar value.

In the examples that follow, each entry is paired with its recorded pIC50.
NC1=N[C@]2(CO1)c1cc(OCC3CCCC3)ccc1Oc1ccc(-c3cncnc3)cc12 [Example 74] ... > 7.00
COc1ncccc1-c1ccc2c(c1)[C@@]1(COC(N)=N1)c1cc(OCC(C)(C)C)ccc1O2 [Example 77] ... > 7.00
CC(C)(C)COc1ccc2c(c1)[C@]1(COC(N)=N1)c1cc(-c3cccnc3)cnc1O2 [Example 92] ... > 7.00

Item under review: NC1=N[C@]2(CO1)c1cc(OC[C@@H]3CC3(F)F)ccc1Oc1ccc(-c3cncnc3)cc12 [Example 97] . Reported pIC50?
> 7.00

Item under review: NC1=N[C@]2(CO1)c1cc(OCC3CC3(F)F)ccc1Oc1ccc(-c3cncnc3)cc12 (stereo partly shown) [Example 62] . Reported pIC50?
> 7.00

Item under review: Cc1cncc(-c2ccc3c(c2)[C@@]2(COC(N)=N2)c2cc(OCC(C)(C)C)ccc2O3)c1 [Example 81] . Reported pIC50?
> 7.00

Item under review: CC(C)(C)COc1ccc2c(c1)C1(COC(N)=N1)c1cc(Br)ccc1O2 (stereo not shown) [Example 57] . Reported pIC50?
6.00 to 7.00

Item under review: NC1=N[C@@]2(CO1)c1cc(C#CC3CC3)ccc1Oc1ccc(OCC3CCCO3)cc12 (stereo partly shown) [Example 103] . Reported pIC50?
> 7.00

Item under review: NC1=N[C@]2(CO1)c1cc(C#CC3CCCC3)ccc1Oc1ccc(-c3cncnc3)cc12 [Example 95] . Reported pIC50?
> 7.00

Item under review: Cc1ncccc1-c1ccc2c(c1)[C@@]1(COC(N)=N1)c1cc(OCC(C)(C)C)ccc1O2 [Example 79] . Reported pIC50?
6.00 to 7.00

Item under review: CC(C)(C)COc1ccc2c(c1)[C@]1(COC(N)=N1)c1cc(-c3ccc4[nH]ccc4c3)ccc1O2 [Example 73] . Reported pIC50?
6.00 to 7.00

Item under review: CC(C)(C)COc1ccc2c(c1)[C@]1(COC(N)=N1)c1cc(-c3ccccc3)ccc1O2 [Example 85] . Reported pIC50?
> 7.00

Item under review: CC(C)(C)COc1ccc2c(c1)[C@]1(COC(N)=N1)c1cc(-c3cc(Cl)ccc3F)cnc1O2 [Example 91] . Reported pIC50?
> 7.00

Item under review: CC(C)(C)COc1ccc2c(c1)[C@]1(COC(N)=N1)c1cc(-c3cc(Cl)ccc3F)cnc1O2 [Example 69] . Reported pIC50?
> 7.00

Item under review: CC(C)(C)COc1ccc2c(c1)[C@@]1(COC(N)=N1)c1cc(-c3cccnc3)cnc1O2 [Example 93] . Reported pIC50?
6.00 to 7.00

Item under review: COc1ccc2c(c1)[C@]1(COC(N)=N1)c1cc(-c3cncnc3)cnc1O2 [Example 54] . Reported pIC50?
5.30 to 6.00

----------
Recorded IC50 by entry
- tested target: BACE1 (Homo sapiens)
- assay method text: In Vitro BACE Cell-based Assay (HEK cell assay): Aβ40 in conditioned medium of cells stably expressing Amyloid Precursor Protein, sandwich ELISA
- study conditions: read-out: HEK cell assay

Item under review: COC(C)(C)COc1ccc2c(c1)[C@]1(COC(N)=N1)c1cc(C#CC3CC3)ccc1O2 . Reported IC50?
100 to 1000 nM

Item under review: CC1(COc2ccc3c(c2)[C@@]2(COC(N)=N2)c2cc(-c4cccc(Cl)c4)cnc2O3)COC1 . Reported IC50?
100 to 1000 nM

Item under review: NC1=N[C@@]2(CO1)c1cc(-c3cccnc3)ccc1Oc1ccc(-c3ccc(F)nc3)cc12 . Reported IC50?
< 100 nM

Item under review: COc1ccc2c(c1)[C@@]1(COC(N)=N1)c1cc(-c3cccnc3)cnc1O2 . Reported IC50?
1000 to 5000 nM

Item under review: NC1=N[C@]2(CO1)c1cc(-c3cccnc3)ccc1Oc1cnc(C3CC3)cc12 . Reported IC50?
100 to 1000 nM

Item under review: CC(C)(C)CCOc1nccc2c1[C@]1(COC(N)=N1)c1cc(-c3cccnc3)ccc1O2 . Reported IC50?
100 to 1000 nM

Item under review: CC(C)(C)COc1ccc2c(c1)[C@@]1(COC(N)=N1)c1cc(-c3ccc(C#N)nc3)ccc1O2 . Reported IC50?
100 to 1000 nM

Item under review: CCCOc1cc2c(cc1F)Oc1ccc(-c3cccnc3)cc1[C@@]21COC(N)=N1 . Reported IC50?
< 100 nM
